- method.notes: In vivo metabolism of IMM-H004 in rat brain after intracerebroventricular injection
- experimental.context: hypothalamus and plasma, icv or intrathecal, 3.8 ug/kg, after icv injection of IMM-H004 3.8 μg/kg, read-out: hypothalamus-to-plasma AUC ratio
reported.metric: Kp
One number for each entry.

stdin: Note down Kp recorded for COc1cc(OC2OC(C(=O)O)C(O)C(O)C2O)cc2oc(=O)c(N3CCN(C)CC3)c(C)c12 (stereo not shown) [IMM-H004G]
stdout: 3.13

---

- System: P-gp
- method.notes: Bidirectional transport in MDCKⅡ-MDR1 cell monolayers
- Format: in vitro ADME
- experimental.context: dog, MDCK-MDR1; MDCKⅡ-MDR1, no inhibitor; IMM-H004 10 µmol/L, digoxin 5 μmol/L; read-out: efflux ratio (ER)
reported.metric: efflux ratio at 120 min

stdin: Supply efflux ratio at 120 min measured with P-gp for C[C@H]1O[C@@H](O[C@H]2[C@@H](O)C[C@H](O[C@H]3[C@@H](O)C[C@H](O[C@H]4CC[C@@]5(C)[C@H](CC[C@@H]6[C@@H]5C[C@@H](O)[C@]5(C)[C@@H](C7=CC(=O)OC7)CC[C@]65O)C4)O[C@@H]3C)O[C@@H]2C)C[C@H](O)[C@@H]1O [digoxin, reference compound] .
stdout: 21.1

Continuing:
stdin: Supply efflux ratio at 120 min measured with P-gp for `COc1cc(O)cc2oc(=O)c(N3CCN(C)CC3)c(C)c12` .
stdout: 2.96

The measurements presented in this section are drawn from paper PMC10975012.
